// data source = PubChem BioAssay (Tox21)

- Experiment Summary: qHTS assay to identify small molecule antagonists of the estrogen receptor alpha (ER-alpha) signaling pathway - cell viability counter screen (AID 743074);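 further: HEK293 cells carrying ER-alpha-UAS-bla reporter stimulated with 17beta-estradiol; nearly all actives have a fitted effect of over 45% in size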
- Conditions: ERalpha-bla HEK293 viability, CellTiter-Glo luminescence, 18 h; series mostly up to 69.4 µM
Results filed as inconclusive are left out. Active and inactive are the calls of the source. The call rests on the fitted dose curve.
Your reply should match one of these outcome classes. active, inactive

Which outcome was assigned to CC(COC(=O)c1ccccc1)OC(=O)c1ccccc1 (configuration not stated) in this test? inactive

State the result this test recorded for `CC=O` . active

# outcome recorded in this test, key = `C[C@]12CC[C@H]3C(=CCc4cc(O)ccc43)[C@@H]1CCC2=O` inactive

Called result for `Nc1ncnc2c1ncn2[C@@H]1O[C@H](COP(=O)(O)O)[C@@H](O)[C@H]1O` active

Status in this test for `CCCCCCCCCCCCCOP(=O)(O)O` ? inactive

In this assay, the call recorded for `CCc1ccc(O)c(C(C)(C)C)c1` was what? inactive

Lab log entry: `CNC(=S)NN` — outcome as called in the assay? inactive

---

- Experiment Summary: qHTS assay to identify small molecule antagonists of the sonic hedgehog signaling (Shh) pathway - cell viability counter screen (AID 1259367); further: nearly all actives have a fitted effect of over 55% in size
- Conditions: NIH/3T3 Gli1-Luc viability, CellTiter-Fluor, 24 h; series mostly up to 92.4 µM
Inconclusive results are not listed. Active and inactive are the calls of the source. Calls follow the shape of the dose curve; as a rule, active = well fitted cell-killing curve with a large enough effect in the repeat runs; inconclusive = weak or mixed curves, or effect the other way; inactive = no such curve, though single readings can be large or run the other way.
Outcome (select one): 1 for active, 0 for inactive

Outcome? `COC(=O)[C@]1(C)CCC[C@@]2(C)[C@H]1CC=C1C=C(C(C)C)CC[C@@H]12` 0

What was the test verdict on `O=Cc1ccc(F)cc1` ? 0

Tell me the assay call for `Cc1cn[nH]c1` please. 0

What outcome does the record of this test show for `CN(C)CCCN1c2ccccc2CCc2ccccc21` ? 0

Which outcome did this test record for the compound `CCCC(=O)OCC(COC(=O)CCC)OC(=O)CCC` ? 0

State the result this test recorded for `C[Si](C)(C)Cl` . 0

I would be grateful if you could indicate the recorded call for `O=S(=O)(O)CCCN1CCOCC1` . 0

Per the assay record, what outcome was assigned to `COCC(=O)O[C@]1(CCN(C)CCCc2nc3ccccc3[nH]2)CCc2cc(F)ccc2[C@@H]1C(C)C` ? 1

// outcome(item) with item = `CCCCCCCC/C=C\CCCCCCCC(=O)N(C)CC(=O)O` 0

Could you please tell me the result logged for O=C1OC(OC(=O)c2cccnc2Nc2cccc(C(F)(F)F)c2)c2ccccc21 (stereo unspecified) in this assay? 0

Assay outcome for `CC(C)CCOCCC(C)C` : what was it? 0

Call for entry `CCOC(/C=C(\C)CCC=C(C)C)OCC` : 0

# fetch the recorded call for `NC(=O)C(=O)N/N=C/c1ccc([N+](=O)[O-])o1` here 0

Write down the call the test reported for this compound. Item: COc1cccc(CCc2ccccc2OCC(CN(C)C)OC(=O)CCC(=O)O)c1 (stereo unspecified) 0

What did the test return for `O=C1c2c(O)ccc([N+](=O)[O-])c2C(=O)c2c([N+](=O)[O-])ccc(O)c21` ? 1

# lookup: test call for `CCN(CC)CCCN(c1ccccc1)C1Cc2ccccc2C1` 0

Recorded test call requested for `CCCCCCCCCCCCCOP(=O)(O)O` 0

Assay outcome for CC(C)=CC1CC(C)CCO1 (stereo unspecified) : what was it? 0

Identify the outcome logged in this assay for the compound shown: CC(CN(C)C)CN1c2ccccc2CCc2ccccc21 (stereo unspecified) 0

Which outcome did this test record for the compound `CCCCCCCCC(C)=O` ? 0

Which outcome was entered for the compound `Cn1cnc2ncnc(N)c21` in this test? 0

Look up the recorded call for `Cc1occc1SSc1ccoc1C` in this test. 0

Record request — test call for `CC(C)(C)c1cc(CCC(=O)NCCCCCCNC(=O)CCc2cc(C(C)(C)C)c(O)c(C(C)(C)C)c2)cc(C(C)(C)C)c1O` 0

Identify the outcome logged in this assay for the compound shown: `CCOCN(C(=O)CS(=O)(=O)O)c1c(C)cccc1CC` 0

For `C=C(c1ccc(C(=O)O)cc1)c1cc2c(cc1C)C(C)(C)CCC2(C)C` , what call appears in the results of this test? 0

Per the assay record, what outcome was assigned to `CCN=c1cc2oc3cc(NCC)c(C)cc3c(-c3ccccc3C(=O)OCC)c-2cc1C` ? 0

---

Could you please report measured cytotoxicity increase for the items listed next?
- Experiment Summary: A CellTox Green Cytotoxicity Assay to monitor cytotoxicity in HEK293 cells - 32 hour (AID 1224881); further: on the % scale 0 is the no-effect control and ±100 the full control effect; nearly all actives have a fitted effect of over 40% in size
- Conditions: CellTox Green fluorescence; series mostly up to 76.8 µM
Inconclusive results are not listed. Calls of active or inactive are those of the source. The call rests on the fitted dose curve; in most records, active means well fitted activation curve with a large enough effect in the repeat runs; inconclusive means weak or mixed curves; inactive means flat fitted curve, though single readings scatter.

The compound listed as `CCN1CCN(c2cc(-c3ccc(F)cc3)c3c(n2)CCCCCC3)CC1` shows cytotoxicity increase equal to 10% [at 15.8 µM] (inactive)

Measured cytotoxicity increase of `COc1cc(C(C)C)c2c(c1)S(=O)(=O)N(COc1cc(=O)n3cccc(OCCN4CCCCC4)c3n1)C2=O` : 5.59% [at 15.8 µM] (inactive)

Please fill in: cytotoxicity increase reported for `O=S(O)O` = 0.593% [at 15.8 µM] (inactive)

# cytotoxicity increase (compound: `C=CC(=C)CC/C=C(\C)CCC=C(C)C` ) is 1.9% [at 15.8 µM] (inactive)

Sample CCC(=O)CC(C)CC (configuration not stated) ; cytotoxicity increase observed: 9.56% [at 0.29 µM] (inactive)

get_value(item= `CCCCCCCCCCCCCCCCCO` , readout=cytotoxicity increase) returns -22.2% [at 15.8 µM] (inactive)

Reported cytotoxicity increase of `N[C@@H](CSSC[C@H](N)C(=O)O)C(=O)O` : 2.69% [at 0.29 µM] (inactive)

---

- Experiment Summary: qHTS RealTime-Glo MT Cell Viability Assay in HepG2 cells - 16 hour (AID 1224885); further: nearly all actives have a fitted effect of over 50% in size
- Conditions: RealTime-Glo luminescence; series mostly up to 76.8 µM
- Excerpt: U.S. Tox21 Program National Center for Advancing Translational Sciences [NCATS] NIH Chemical Genomics Center [NCGC] U.S. Environmental Protection Agency [EPA] National Institutes of Environmental Health Sciences [NIEHS] National Toxicology Program [NTP] U.S. Food and Drug Administration [FDA] Tox21 Assay Overview: Measure of cell viability is critical in the cell-base assay. Analysis of cell viability is necessary for the characterization of cell responses to cytotoxic drugs and environmental stress. […]
Records with an inconclusive call do not appear. Calls of active or inactive are those of the source. Calls follow the shape of the dose curve; as a rule, active = well fitted cell-killing curve with a large enough effect in the repeat runs; inconclusive = weak or mixed curves; inactive = flat fitted curve, though single readings scatter.
# valid calls are 1.0 (active), 0.0 (inactive); nothing else

Check the results log: what was the call for `Oc1c(Br)cc(Br)c2cccnc12` ? 0.0

Can you look up the reported call for `CC(=O)c1ccccc1N` for me? 0.0

For `CCCOc1sc(C(=O)N2CCC(c3cc(CN)ccc3F)CC2)c(C)c1Br` , what call appears in the results of this test? 1.0

Dear all, I need the recorded test outcome for `C/C=C/C=N/NC(=O)c1ccncc1` , thank you. 0.0

What is the recorded call for this compound in the test? `Cc1ccc2ccc3cccc4ccc1c2c34` 0.0

For `CCCCCCCCCCCCCOP(=O)(O)O` , which call appears in the assay record? 0.0

What is the recorded call for this compound in the test? `ClC/C=C\CCl` 0.0

For `CC(C)CCOCCC(C)C` , what call appears in the results of this test? 0.0

What did this assay record as the result for `O=C1OC(=O)c2cccc3cccc1c23` ? 0.0

Recorded call for `CCCCOc1ccc(C(=O)CCN2CCCCC2)cc1` ? 1.0

How was CCCCCCC(C)OC(=O)COc1nc(F)c(Cl)c(N)c1Cl (stereo unspecified) classified in this test? 0.0

Recorded call for `O=C1OC(=O)c2ccc3c4c(ccc1c24)C(=O)OC3=O` ? 0.0

Called result for `O=C(O)CCCCCCC(=O)O` 0.0

What did the test return for `Cc1cc(C)c(C=O)c(C)c1` ? 0.0

Would you mind telling me which call this test gave `CCCCCCCCC(C)=O` ? 0.0

Status in this test for `C=C[C@](C)(O)CC[C@@H]1[C@@]2(C)CCCC(C)(C)[C@@H]2CC[C@@]1(C)O` ? 1.0

Fill in: this test's call for `C/C=C/CO` is ___ 0.0

Lab log entry: `Cc1cccc(N(C)C)c1` — outcome as called in the assay? 0.0

Lab log entry: `Cc1cc(=O)[nH]c(=O)[nH]1` — outcome as called in the assay? 0.0

Recorded test call requested for Clc1ccc(C(c2ccccc2Cl)C(Cl)Cl)cc1 (stereo unspecified) 0.0

Per the records of this test, what outcome belongs to `C=CC(=O)OCCC#N` ? 0.0

# fetch the recorded call for `CC(C)(C)CC(C)(C)c1ccccc1O` here 0.0

Please let me know the test result on file for `CNCC[C@H](Oc1cccc2ccccc12)c1cccs1` . 1.0

Returns: the outcome recorded for `Cc1cc(Nc2ccc(O)cc2)ccc1N` in this assay. 1.0

Dear all, I need the recorded test outcome for Clc1ccc(C(Cn2ccnc2)OCc2c(Cl)cccc2Cl)c(Cl)c1 (stereo unspecified) , thank you. 0.0

What classification did `CCCCCCCOC(=O)c1ccccc1C(=O)OCCCCCCC` end up with in this test? 0.0

Answer briefly: the call reported for `CCCCCCCC/C=C\CCCCCCCC(=O)NCc1ccc(O)c(OC)c1` in this assay. 0.0

For CC1CCCNC1 (stereo unspecified) , what call appears in the results of this test? 0.0

Just curious, what result did `CC(=O)C=O` get here? 0.0

Dear colleague, could you share the recorded outcome for `CCCCCCCCCCCC(=O)N(CC)CC` when you have a moment? 0.0

Hi, sorry to bother you, what did the test record for OCCC(O)CO (stereo unspecified) ? 0.0
